Protocol Details: viability with doxycycline-inducible construct
Format: cell-based
Condition Summary: human, dox 1000; Concentration 0.15625; read-out: mean_norm (normalized viability)
Measurement Type: viability

CC[C@@H]1C(=O)N(C)c2cnc(Nc3ccc(C(=O)NC4CCN(C)CC4)cc3OC)nc2N1C1CCCC1
88.7%

* * *

Protocol Details: viability with doxycycline-inducible construct
Assay type: cell-based
Condition Summary: human, dox 0; Concentration 1250; read-out: mean_norm (normalized viability)
Measurement Type: viability

CC[C@@H]1C(=O)N(C)c2cnc(Nc3ccc(C(=O)NCCOCCOCCOCCOCCC(=O)N4CCC(Nc5cccc6c5cc(C#CCNc5ccc(S(C)(=O)=O)cc5OC)n6CC(F)(F)F)CC4)cc3OC)nc2N1C1CCCC1
95.8%
